Data credit: patent US8802161B2

- Tested target: LDH Type V (Oryctolagus cuniculus, UniProt P13491)
- Construct: were determined in pure isolated enzyme preparations; from tissue; host or cells: rabbit muscle
- Measurement notes: LDH enzyme kinetic activity (NADH oxidation)
- Type: biochemical, rabbit
Quantity: LDH inhibition (LDH enzyme kinetic profiles)

- Compound: "O=c1c(O)c(-c2ccc(O)c(O)c2)oc2cc(O)cc(O)c12"
  Result: "LDH inhibitors"
- Compound: "O=C(O[C@@H]1Cc2c(O)cc(O)cc2O[C@@H]1c1cc(O)c(O)c(O)c1)c1cc(O)c(O)c(O)c1 [epigallocatechin gallate]"
  Result: "LDH inhibitors"
- Compound: "O=C(O)CC(O)(CC(=O)O)C(=O)O"
  Result: "LDH inhibitors"
